We begin with a simple list: items and their reported IC50.
System under test: UniProt P55212
Sequence (P55212 24-179 limits assumed): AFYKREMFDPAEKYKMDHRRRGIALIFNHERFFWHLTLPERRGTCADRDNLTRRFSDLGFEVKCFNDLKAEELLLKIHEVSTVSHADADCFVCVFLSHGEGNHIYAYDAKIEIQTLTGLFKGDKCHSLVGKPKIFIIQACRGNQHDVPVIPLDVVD
Sequence (P55212 194-293 limits assumed): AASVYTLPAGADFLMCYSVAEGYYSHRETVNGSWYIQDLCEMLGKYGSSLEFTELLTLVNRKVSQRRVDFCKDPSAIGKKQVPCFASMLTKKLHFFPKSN
Assay summary: Inhibition of human recombinant caspase 6 assessed as accumulation of fluorogenic product by fluorometric assay
Reported endpoint: IC50 (nM)

| Record smiles | System under test | Reported endpoint | Sign qualifier | Result value |
| --- | --- | --- | --- | --- |
| O=C1C(=O)N(Cc2ccccc2)c2ccc(S(=O)(=O)N3CCC[C@H]3COc3ccccc3)cc21 | UniProt P55212 | IC50 | > | 5000 |
| N#CC(C#N)=C1C(=O)N(Cc2ccc(Cl)c(Cl)c2)c2ccc(S(=O)(=O)N3CCSCC3)cc21 | UniProt P55212 | IC50 | = | 230 |
| N#CC(C#N)=C1C(=O)N(Cc2ccc(Cl)c(Cl)c2)c2ccc(S(=O)(=O)N3CCCCC3)cc21 | UniProt P55212 | IC50 | = | 568 |
| O=C1C(=O)N(Cc2ccc(Cl)c(Cl)c2)c2ccc(S(=O)(=O)N3CCOCC3)cc21 | UniProt P55212 | IC50 | > | 15000 |
| N#CC(C#N)=C1C(=O)N(Cc2ccccc2)c2ccc(S(=O)(=O)N3CCC3)cc21 | UniProt P55212 | IC50 | = | 156 |
| COc1ccc(CN2C(=O)C(=C(C#N)C#N)c3cc(S(=O)(=O)N4CCCCC4)ccc32)cc1 | UniProt P55212 | IC50 | = | 545 |
| COc1ccc(CN2C(=O)C(=C(C#N)C#N)c3cc(S(=O)(=O)N4CCOCC4)ccc32)cc1 | UniProt P55212 | IC50 | = | 453 |
| O=C1Nc2ccc(S(=O)(=O)N3CCOCC3)cc2C1=O | UniProt P55212 | IC50 | > | 20000 |
| COc1ccc(CN2C(=O)C(=C(C#N)C#N)c3cc(S(=O)(=O)N4CCSCC4)ccc32)cc1 | UniProt P55212 | IC50 | = | 188 |
| O=C1C(=O)N(Cc2ccccc2)c2ccc(S(=O)(=O)N3CCSCC3)cc21 | UniProt P55212 | IC50 | = | 12800 |
| N#CC(C#N)=C1C(=O)N(Cc2ccc(Cl)c(Cl)c2)c2ccc(S(=O)(=O)N3CCOCC3)cc21 | UniProt P55212 | IC50 | = | 592 |
| N#CC(C#N)=C1C(=O)N(Cc2ccccc2)c2ccc(S(=O)(=O)N3CCOCC3)cc21 | UniProt P55212 | IC50 | = | 425 |
| N#CC(C#N)=C1C(=O)N(Cc2ccccc2)c2ccc(S(=O)(=O)N3CCCCC3)cc21 | UniProt P55212 | IC50 | = | 325 |
| COc1ccc(CN2C(=O)C(=C(C#N)C#N)c3cc(S(=O)(=O)N4CCC4)ccc32)cc1 | UniProt P55212 | IC50 | = | 197 |
| N#CC(C#N)=C1C(=O)N(Cc2ccc(Cl)c(Cl)c2)c2ccc(S(=O)(=O)N3CCCC3)cc21 | UniProt P55212 | IC50 | = | 468 |
| N#CC(C#N)=C1C(=O)N(Cc2ccccc2)c2ccc(S(=O)(=O)N3CCSCC3)cc21 | UniProt P55212 | IC50 | = | 151 |
| O=C1C(=O)N(Cc2ccccc2)c2ccc(S(=O)(=O)N3CCC3)cc21 | UniProt P55212 | IC50 | = | 9830 |
| COc1ccc(CN2C(=O)C(=C(C#N)C#N)c3cc(S(=O)(=O)N4CCCC4)ccc32)cc1 | UniProt P55212 | IC50 | = | 358 |
| N#CC(C#N)=C1C(=O)N(Cc2ccc(Cl)c(Cl)c2)c2ccc(S(=O)(=O)N3CCC3)cc21 | UniProt P55212 | IC50 | = | 280 |
| N#CC(C#N)=C1C(=O)N(Cc2ccccc2)c2ccc(S(=O)(=O)N3CCCC3)cc21 | UniProt P55212 | IC50 | = | 241 |
